Hello, the source for this data is paper PMC8623179, in case you need it.

# pIC50 values compiled below
- target_or_system: DYRK1A (Rattus norvegicus, UniProt Q63470)
- Construct: GST; made in house; host or cells: Escherichia coli
- method: DYRK1A kinase assay
- Format: biochemical
- condition_parameters: Table 5; 15 μM ATP
In simple prose, pIC50 is minus the logarithm base ten of a concentration in moles per litre.

Example cases with answers are listed next.
| sample_smiles | target_or_system | endpoint_label | measured_result |
| --- | --- | --- | --- |
| O=C1N=C(N2CCCCC2)S/C1=C\c1ccc2c(c1)OCCO2 | DYRK1A (Rattus norvegicus, UniProt Q63470) | pIC50 | 6.03 |
| O=C1N=C(N2CCOCC2)S/C1=C\c1ccc2c(c1)CCO2 | DYRK1A (Rattus norvegicus, UniProt Q63470) | pIC50 | 6.22 |

-- ask Given `O=C1N=C(N2CCNCC2)S/C1=C\c1ccc2c(c1)OCO2` , state its recorded pIC50.
-- reply 5.74

###

- target_or_system: DYRK1A (Rattus norvegicus, UniProt Q63470)
- Construct: GST; made in house; host or cells: Escherichia coli
- method: DYRK1A kinase assay
- Format: biochemical
- condition_parameters: Table 4; 15 μM ATP
endpoint_label: IC50

These recorded examples may help you get a feel for the data.
| sample_smiles | IC50 |
| --- | --- |
| O=C1NC(=S)S/C1=C\c1ccc2c(c1)OCCCO2 | > 10 µM |
| O=C1/C(=C/c2ccc3c(c2)OCO3)SC(=S)N1NS(=O)(=O)c1ccccc1 | > 10 µM |
| O=C(CCc1ccccc1)NN1C(=O)/C(=C/c2ccc3c(c2)OCO3)SC1=S | > 10 µM |
| O=C1NC(=S)S/C1=C\c1cccc(-c2ccc3c(c2)OCO3)n1 | 0.35 µM |
| O=C1NC(=S)S/C1=C\c1cc(Br)c2c(c1)OCO2 | 0.7 µM |
| O=C(O)CCN1C(=O)/C(=C/c2ccc3c(c2)OCO3)SC1=S | 0.7 µM |

-- ask What measured IC50 goes with `COc1ccc(C(=O)NN2C(=O)/C(=C/c3ccc4c(c3)OCO4)SC2=S)cc1` ?
-- reply > 10 µM

-- ask Entry `NN1C(=O)/C(=C/c2ccc3c(c2)OCO3)SC1=S` please
-- reply > 10 µM

-- ask Now the same for `O=C1NC(=S)S/C1=C\c1ccc2c(c1)OCCO2`
-- reply 0.056 µM

-- ask Same lookup for `O=C1NC(=S)S/C1=C\c1ccc(O)c(O)c1` , please.
-- reply > 10 µM

-- ask Here is the next compound: `O=C(NN1C(=O)/C(=C/c2ccc3c(c2)OCO3)SC1=S)c1ccccc1`
-- reply > 10 µM

-- ask Try this compound too: `O=C1NC(=S)S/C1=C\c1cc(O)cc(O)c1`
-- reply > 10 µM

-- ask Then what about the compound `O=C(Cc1ccccc1)NN1C(=O)/C(=C/c2ccc3c(c2)OCO3)SC1=S` ?
-- reply > 10 µM
